- TARGET_SYSTEM: Human immunodeficiency virus type 1 integrase (Human immunodeficiency virus 1, UniProt Q7ZJM1)
- Sequence (Q7ZJM1 whole entry): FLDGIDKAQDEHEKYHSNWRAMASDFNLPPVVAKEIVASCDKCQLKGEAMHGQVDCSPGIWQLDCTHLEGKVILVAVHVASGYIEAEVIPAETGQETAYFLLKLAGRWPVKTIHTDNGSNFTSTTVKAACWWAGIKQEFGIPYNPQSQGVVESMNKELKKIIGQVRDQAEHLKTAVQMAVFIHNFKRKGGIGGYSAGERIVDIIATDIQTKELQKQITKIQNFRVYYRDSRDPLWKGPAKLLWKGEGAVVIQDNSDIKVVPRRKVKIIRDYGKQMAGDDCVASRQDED
The label true (1) is reserved for IC50 strictly under 10 nM; false (0) covers values equal to or above it.

(Q) Identify whether the molecule CC(NC(=O)c1c(O)c2ncc(Cc3ccccc3)cc2[nH]c1=O)c1ccccc1 (centres undefined) records IC50 below 10 nM.
(A) false (0)

(Q) Is IC50 of O=C(NCc1ccc(F)cc1)c1c(O)c2ncc(Cc3ccc(F)cc3)cc2n(CC(=O)N2CCCCC2)c1=O strictly below 10 nM?
(A) false (0)

(Q) Record O=C(NCc1ccc(F)cc1)c1c(O)c2ncc(Cc3ccc(F)cc3)cc2[nH]c1=O : is its IC50 strictly below 10 nM?
(A) true (1)

(Q) In plain terms, does O=C(NCc1ccc(F)cc1)c1c(O)c2ncccc2n(C2CCCC2)c1=O come in under 10 nM for IC50?
(A) true (1)

(Q) Confirm or reject: IC50 of O=C(NCc1ccc(F)cc1)c1c(O)c2ncc(Cc3ccccc3)cc2n(CC2CC2)c1=O lies strictly below 10 nM
(A) false (0)

(Q) Does O=C(NCc1ccc(F)cc1)c1c(O)c2ncc(Cc3ccccc3)cc2[nH]c1=O have IC50 strictly under 10 nM?
(A) false (0)

(Q) hey, is IC50 for COc1ccc(CNC(=O)c2c(O)c3ncc(Cc4ccc(F)cc4)cc3[nH]c2=O)cc1 lower than 10 nM or not?
(A) true (1)

(Q) Please indicate whether the reported IC50 of CN(C)C(=O)Cn1c(=O)c(C(=O)NCc2ccc(F)cc2)c(O)c2ncc(Cc3ccc(F)cc3)cc21 is strictly below 10 nM.
(A) true (1)

(Q) Does O=C(NCc1ccc(F)cc1)c1c(O)c2ncc(Cc3ccc(F)cc3)cc2n(CC(=O)N2CCOCC2)c1=O have IC50 strictly under 10 nM?
(A) true (1)

(Q) Strictly below 10 nM: is that where IC50 of Nc1ccc(Cn2c(=O)c(C(=O)NCc3ccc(F)cc3)c(O)c3ncc(Cc4ccccc4)cc32)cc1 sits?
(A) false (0)

(Q) Answer whether the molecule COc1ccccc1CNC(=O)c1c(O)c2ncc(Cc3ccc(F)cc3)cc2[nH]c1=O has IC50 strictly less than 10 nM
(A) true (1)

(Q) Lab log: compare recorded IC50 with 10 nM; is it strictly lower for CS(=O)(=O)c1ccc(Cn2c(=O)c(C(=O)NCc3ccc(F)cc3)c(O)c3ncc(Cc4ccccc4)cc32)cc1 ?
(A) false (0)

(Q) IC50 strictly < 10 nM for this molecule? O=C(NCc1ccc(F)cc1Cl)c1c(O)c2ncc(Cc3ccccc3)cc2[nH]c1=O
(A) false (0)

(Q) Is 10 nM strictly greater than the molecule's reported IC50? molecule: CC(C)n1c(=O)c(C(=O)NCc2ccc(F)cc2)c(O)c2ncccc21
(A) true (1)

(Q) Dear reviewer, please state whether CCCn1c(=O)c(C(=O)NCc2ccc(F)cc2)c(O)c2ncc(Cc3ccccc3)cc21 has IC50 strictly beneath 10 nM.
(A) false (0)

(Q) Lab note: IC50 threshold 10 nM. Does this molecule come in strictly under it? O=C(NCc1ccc(F)cc1)c1c(O)c2ncc(Cc3ccc(F)cc3)cc2n(CCN2CCCC2=O)c1=O
(A) false (0)

(Q) Threshold test, IC50 < 10 nM: COc1ccc(CNC(=O)c2c(O)c3ncc(Cc4ccc(F)cc4)cc3[nH]c2=O)cc1OC
(A) true (1)

(Q) I wonder whether O=C(NCc1ccc(F)cc1C(F)(F)F)c1c(O)c2ncc(Cc3ccccc3)cc2[nH]c1=O has IC50 below 10 nM. Can you tell?
(A) false (0)
